Experiment: degree of sweetness based on sucrose of compounds of differing absolute configuration
Conditions: Table 2
Where a SMILES comes first, the peptide text is derived from it.
measured-quantity: Degree of sweetness based on sucrose

molecule	result
C[C@@H]1[C@H]2CC[C@H](C2)[C@H]1C[C@H](O)[C@H](C)NC(=O)[C@@H](N)CC(=O)O	0 time
CC(NC(=O)[C@@H](N)CC(=O)O)C(O)C[C@@H]1[C@@H]2CC[C@@H](C2)[C@H]1C (stereo partly shown)	850 time
COC(=O)[C@H](Cc1ccccc1)NC(=O)[C@@H](N)CC(=O)O [APM, L-aspartyl-L-phenylalanine methyl ester, reference compound] (H-Asp-Phe-OMe)	250 time
C[C@@H](NC(=O)[C@@H](N)CC(=O)O)[C@H](O)C[C@@H]1C[C@@H]2CC[C@@]1(C)C2	3,300 time
CC(NC(=O)[C@@H](N)CC(=O)O)C(O)C[C@@H]1C(C)(C)[C@@H]2CC[C@@]1(C)C2 (stereo partly shown)	1,800 time
CC(NC(=O)[C@@H](N)CC(=O)O)C(O)C[C@@H]1C[C@@H]2CC[C@@]1(C)C2 (stereo partly shown)	800 time

Turning now to a further molecule:
GET /value?item= C[C@@H]1[C@H]2CC[C@H](C2)[C@H]1C[C@@H](O)[C@@H](C)NC(=O)[C@@H](N)CC(=O)O &field=Degree of sweetness based on sucrose returns 2,500 time

====

Test: sweetness characteristics in standard cola beverage, nine panelists
Details: cola beverage stored at 37° C. for 26 days, 1 extremely poor to 9 extremely excellent, sweetener at 30 to 520 ppm
Where a SMILES comes first, the peptide text is derived from it.
Provide the reported Average score of each item.
Numbers only.

Sample records with Average score:
compound	number
C[C@@H]1[C@H]2CC[C@H](C2)[C@H]1C[C@@H](O)[C@@H](C)NC(=O)[C@@H](N)CC(=O)O	6.2
C[C@@H](NC(=O)[C@@H](N)CC(=O)O)[C@H](O)C[C@@H]1C[C@@H]2CC[C@@]1(C)C2	6.3

Your task in this section: give Average score for each listed record.
1. COC(=O)[C@H](Cc1ccccc1)NC(=O)[C@@H](N)CC(=O)O [APM, L-aspartyl-L-phenylalanine methyl ester, reference compound] (H-Asp-Phe-OMe)
2. CC(NC(=O)[C@@H](N)CC(=O)O)C(O)C[C@@H]1C[C@@H]2CC[C@@]1(C)C2 (stereo partly drawn)
3. CC(NC(=O)[C@@H](N)CC(=O)O)C(O)C[C@@H]1[C@@H]2CC[C@@H](C2)[C@H]1C (stereo partly drawn)
4. CC(NC(=O)[C@@H](N)CC(=O)O)C(O)C[C@@H]1C(C)(C)[C@@H]2CC[C@@]1(C)C2 (stereo partly drawn)

# output
[5.8, 5.1, 5.0, 4.1]

====

Provide the reported Degree of sweetness of each item.
Assay: degree of sweetness of L-aspartyl fenchyl amino alcohols by absolute configuration at (a) and (b)
Conditions: R1 methyl, R2 fenchyl; absolute configuration (a),(b)
One number for each entry.

molecule	Degree of sweetness
C[C@H](NC(=O)[C@@H](N)CC(=O)O)[C@H](O)CC1C2(C)CCC(C2)C1(C)C (stereo partly drawn) [(S,R)]	0
C[C@H](NC(=O)[C@@H](N)CC(=O)O)[C@@H](O)CC1C2(C)CCC(C2)C1(C)C (stereo partly drawn) [(S,S)]	0

Turning now to a further molecule:
GET /value?item= C[C@@H](NC(=O)[C@@H](N)CC(=O)O)[C@@H](O)CC1C2(C)CCC(C2)C1(C)C (stereo partly drawn) [(R,S)] &field=Degree of sweetness returns 0
